FYI, the data here is from PubChem BioAssay (NCI).

# Test system: SK-OV-3 ovarian
# experiment: NCI-60 one-dose screen, 48 h (100 = growth as untreated, 0 = no growth, -100 = all killed)
# experimental conditions: 10 µM unless noted
This is part of a sample that, as a whole, favours compounds with a hit. Of some 83,000 tested, about 20% had one in any assay.
In plain terms, low growth, meaning strictly below 80%, gives YES, and everything else gives NO.

>  <compound>
O=S(=O)(NCCCNc1cc(-c2c(-c3cccc(O)c3)nc3sccn23)ccn1)c1cccc2ccccc12

>  <category>
YES

$$$$

*Q* Does Fc1cc(-c2nnc3sc(-c4ccc(Cl)cc4Cl)nn23)c(Cl)cc1Cl have growth strictly under 80%?
*A* YES

*Q* How about this compound: CCCCCCNC(=O)Oc1ccc(/C(=C(\C)c2ccc(Cl)cc2)c2ccc(OCCN(CC)CC)cc2)cc1
*A* NO

*Q* Next: O=C(CSc1nc2ccccc2[nH]1)Nc1cccc(Cl)c1
*A* NO

*Q* Follow-up entry: COc1ccc(-c2nc(NCCO)[nH]c(=O)c2C#N)cc1
*A* NO

*Q* And for Cc1nc(/N=C(\N)NC(=O)Nc2cccc(Cl)c2)sc1C ?
*A* NO

*Q* Also, O=C(Nc1ccc(-c2nc(-c3cccc(OCCN4CCOCC4)c3)c(-c3ccnc(Br)c3)[nH]2)cc1)c1ccccc1 please.
*A* YES

*Q* And for CCCCC[C@H](O)C/C=C1/C(=O)C=C[C@@H]1C/C=C\CCCC(=O)O ?
*A* NO

*Q* Follow-up entry: COc1ccc([C@H]2c3cc(OC)c(OC)cc3C=C(C=O)C2CO)cc1OC (stereo not given in full)
*A* YES

----------
# Test system: HCT-15 colon
# experiment: NCI-60 one-dose screen, 48 h (100 = growth as untreated, 0 = no growth, -100 = all killed)
# experimental conditions: 10 µM unless noted
Compounds without any hit were thinned out: in the full panel of roughly 83,000, 20% have a hit. Calls of active or inactive are those of the source. The calls were made as follows: active = growth percent below 10; inactive = the rest.
quantity kind: growth

Examples from the recorded data:
>  <molecule>
Cc1ccc2nc(NC(=O)CSc3nc(Cl)c(C#N)c(-c4ccccc4)n3)sc2c1

>  <growth>
99.8% (inactive)

$$$$
>  <molecule>
FC(F)(F)c1cc(Nc2ccc3c(OCCCN4CCOCC4)cccc3n2)ccc1Cl

>  <growth>
-39.8% (active)

$$$$
>  <molecule>
COc1ccc(CNC(=O)C(=O)[C@H](Cc2ccccc2)NC(=O)c2[nH]c3ccccc3c(=O)c2C)cc1

>  <growth>
103% (inactive)

$$$$
>  <molecule>
O=C(Nc1ccc(-c2nc(-c3cccc(OCCN4CCOCC4)c3)c(-c3ccnc(Br)c3)[nH]2)cc1)c1ccccc1

>  <growth>
-7.78% (active)

$$$$
>  <molecule>
Cc1ccc(-c2nc(N3CCN(C(=O)c4ccc(OC(F)(F)F)cc4)CC3)c3ccccc3n2)cc1

>  <growth>
72.8% (inactive)

$$$$

*Q* For CCN(CC)Cc1cc(Nc2c3ccc(Cl)cc3nc3ccc(OC)cc23)ccc1O , what is its reported growth?
*A* 34.1% (inactive)

*Q* Same read-out for COc1ccc(C(=O)N=Nc2c(O)n(C)c3ccccc23)cc1 ?
*A* 91.6% (inactive)

*Q* Repeat for the following molecule: NCCCNc1nc2ccccc2c2c(=O)c3cc(C(F)(F)F)ccc3sc12
*A* -55.7% (active)

*Q* # repeat for O=C(CS(=O)c1oc(-c2cccs2)nc1S(=O)(=O)c1ccc(Br)cc1)c1ccccc1 (centres undefined)
*A* 101% (inactive)
